# measured on: CFTR in F508del/F508del primary CF hBE cells (Homo sapiens, UniProt P13569, DEL508-508)
# Construct: Primary cystic fibrosis human bronchial epithelial (CF hBE) cells were expanded and cultured; endogenous in cells
# Sequence (P13569 with tags, fused parts or gaps DEL508-508): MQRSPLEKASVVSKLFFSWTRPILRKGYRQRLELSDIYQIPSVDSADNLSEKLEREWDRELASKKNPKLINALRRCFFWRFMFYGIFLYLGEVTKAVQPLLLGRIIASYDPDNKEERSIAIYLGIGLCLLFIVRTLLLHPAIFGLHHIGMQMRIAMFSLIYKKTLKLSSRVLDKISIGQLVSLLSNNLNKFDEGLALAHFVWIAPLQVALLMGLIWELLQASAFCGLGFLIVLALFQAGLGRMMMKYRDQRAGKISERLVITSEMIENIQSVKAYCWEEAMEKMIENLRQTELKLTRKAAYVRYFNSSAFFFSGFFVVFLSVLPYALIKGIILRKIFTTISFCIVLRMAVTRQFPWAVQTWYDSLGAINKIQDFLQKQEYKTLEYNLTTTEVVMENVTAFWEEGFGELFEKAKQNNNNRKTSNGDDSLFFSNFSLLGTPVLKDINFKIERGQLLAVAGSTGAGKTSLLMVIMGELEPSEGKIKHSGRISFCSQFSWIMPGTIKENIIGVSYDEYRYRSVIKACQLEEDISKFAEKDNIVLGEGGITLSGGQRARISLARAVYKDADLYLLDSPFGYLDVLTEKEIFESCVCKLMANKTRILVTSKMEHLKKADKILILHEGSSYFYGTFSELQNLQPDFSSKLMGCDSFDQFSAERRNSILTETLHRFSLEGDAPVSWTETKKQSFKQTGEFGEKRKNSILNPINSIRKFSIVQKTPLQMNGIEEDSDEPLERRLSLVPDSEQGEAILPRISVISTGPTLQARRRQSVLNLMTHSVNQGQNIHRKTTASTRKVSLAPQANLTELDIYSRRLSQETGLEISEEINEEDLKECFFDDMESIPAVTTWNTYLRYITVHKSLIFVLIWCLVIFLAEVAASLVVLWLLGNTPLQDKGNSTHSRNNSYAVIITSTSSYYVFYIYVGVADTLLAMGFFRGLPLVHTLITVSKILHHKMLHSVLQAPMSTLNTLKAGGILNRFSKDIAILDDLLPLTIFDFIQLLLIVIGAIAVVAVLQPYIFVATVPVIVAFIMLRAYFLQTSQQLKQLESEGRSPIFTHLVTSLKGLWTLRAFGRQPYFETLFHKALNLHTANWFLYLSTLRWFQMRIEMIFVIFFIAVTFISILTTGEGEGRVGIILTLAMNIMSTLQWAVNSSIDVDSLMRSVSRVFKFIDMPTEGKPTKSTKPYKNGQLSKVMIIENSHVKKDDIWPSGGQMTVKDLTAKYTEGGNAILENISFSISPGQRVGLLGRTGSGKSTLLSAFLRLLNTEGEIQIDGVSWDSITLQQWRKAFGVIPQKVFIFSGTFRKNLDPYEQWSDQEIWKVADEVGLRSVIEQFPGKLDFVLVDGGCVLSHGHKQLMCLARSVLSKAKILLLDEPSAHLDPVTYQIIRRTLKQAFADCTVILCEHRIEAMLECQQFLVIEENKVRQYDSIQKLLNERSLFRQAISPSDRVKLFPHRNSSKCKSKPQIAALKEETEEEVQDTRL
# test protocol: Ussing chamber electrophysiology assay of CFTR potentiation in F508del/F508del CF bronchial epithelial cells (27° C.)
pEC50: −log10 of the molar value.
experimental endpoint: pEC50

(P) COc1ncccc1-c1cn(C(C)c2cn(-c3ccccc3F)nn2)c2ncnc(N)c12 (centres unmarked) [Example 215]
(Q) COc1ncccc1-c1cn(C(c2cn(-c3ccccc3F)nn2)C2CC2)c2ncnc(N)c12 (centres unmarked)
(R) COCC1CC1c1cn(Cc2cn(-c3ccccc3F)nn2)c2ncnc(N)c12 (centres unmarked)
Arrange by pEC50, high to low. Return the labels ranked in the requested order, please.
Q, P, R

###

# measured on: CFTR in F508del/F508del primary CF hBE cells (Homo sapiens, UniProt P13569, DEL508-508)
# Construct: Primary cystic fibrosis human bronchial epithelial (CF hBE) cells were expanded and cultured; endogenous in cells
# test protocol: Ussing chamber electrophysiology assay of CFTR potentiation in F508del/F508del CF bronchial epithelial cells (27° C.)
experimental endpoint: EC50 (nM)

* CCC(c1cn(-c2ccc(F)cc2F)nn1)n1cc(-c2cnc(C(F)F)nc2)c2c(N)ncnc21 (single isomer, unassigned; enantiomer 2) [Example 168] | 2330

(1) CCC(c1cn(-c2ccc(F)cc2)nn1)n1cc(-c2cncnc2OC)c2c(N)ncnc21 (single isomer, unassigned; enantiomer 1) [Example 149]
(2) CCC(c1cn(-c2ccccc2F)nn1)n1cc(-c2cncnc2OC)c2c(N)ncnc21 (single isomer, unassigned; enantiomer 1) [Example 133]
So which one has the bigger EC50 here, 1 or 2 ? Write down the label of the entry you select.
2
(2: 721 nM, 1: 45.3 nM)

###

# measured on: recombinant F508del V470 CFTR in Fischer rat thyroid (FRT) cells (Homo sapiens, UniProt P13569, DEL508-508)
# test protocol: FRT ion flux assay of F508del CFTR potentiation
# experimental conditions: FRT cells expressing F508del V470 CFTR, forskolin 20 uM, 27° C. pre-incubation
experimental endpoint: EC50 (nM)

• CCC(c1cn(-c2cc(F)cc(F)c2)nn1)n1cc(-c2cnc(C(F)(F)F)nc2)c2c(N)ncnc21 (single isomer, unassigned; enantiomer 2) [Example 312] = 1020
• CC(C)n1cc(Cn2cc(-c3ccc(Cl)cc3)c3c(N)ncnc32)cn1 = 422
• CCC(c1cn(-c2ccccc2)nn1)n1cc(-c2cnc(C(F)(F)F)nc2)c2c(N)ncnc21 (single isomer, unassigned; enantiomer 2) [Example 130] = 234

(P) CC(c1cn(-c2ccccc2F)nn1)n1cc(-c2ccc(OC3CC3)cc2)c2c(N)ncnc21 (single isomer, unassigned; enantiomer 1) [Example 117]
(Q) Nc1ncnc2c1c(-c1cccnc1OC(F)F)cn2Cc1cn(-c2ccccc2F)nn1
Given the listed records, identify the one among P and Q with higher EC50. Field: selected label. Fill in the label of the entry you choose.
P

###

# measured on: CFTR in F508del/F508del primary CF hBE cells (Homo sapiens, UniProt P13569, DEL508-508)
# Construct: Primary cystic fibrosis human bronchial epithelial (CF hBE) cells were expanded and cultured; endogenous in cells
# test protocol: Ussing chamber electrophysiology assay of CFTR potentiation in F508del/F508del CF bronchial epithelial cells (27° C.)
pEC50: −log10 of the molar value.
experimental endpoint: pEC50

• CCC(c1cn(-c2ccccc2F)nn1)n1cc(-c2cc(F)cnc2OC)c2c(N)ncnc21 (single isomer, unassigned; enantiomer 2) [Example 140] = 7.20

(a) COc1ncccc1-c1cn(C2(c3cn(-c4ccccc4F)nn3)CC2)c2ncnc(N)c12 [Example 298]
(b) CCC(c1cn(-c2ccc(F)cc2F)nn1)n1c(C#N)c(-c2cnc(C(F)(F)F)nc2)c2c(N)ncnc21 (single isomer, unassigned) [Example 17]
Which of the two items, a and b , has the greater recorded pEC50? Indicate your choice by writing its label.
b
(b: 7.31, a: 6.61)

Origin of measurements: patent US12612409B2
